- condition-set: human, in vivo
Counter-ions that a name gives are not always drawn.
observation-type: Eta^2, eGFR vs Ctrough
Respond with the number and no other words.

Record Nc1nc(=O)n([C@@H]2CS[C@H](CO)O2)cc1F [FTC, emtricitabine] , field Eta^2, eGFR vs Ctrough: 0.083

For CC(C)OC(=O)OCOP(=O)(CO[C@H](C)Cn1cnc2c(N)ncnc21)OCOC(=O)OC(C)C [TDF, tenofovir disoproxil fumarate] the compound record lists Eta^2, eGFR vs Ctrough as 0.135

Consider Nc1ccn([C@@H]2CS[C@H](CO)O2)c(=O)n1 [3TC, lamivudine] . Its measured Eta^2, eGFR vs Ctrough is 0.230

Sample Nc1nc(NC2CC2)c2ncn([C@H]3C=C[C@@H](CO)C3)c2n1 [ABC, abacavir] ; Eta^2, eGFR vs Ctrough observed: 0.089
